System: HL-1
Test Name: relative cell viability (CellTiter-Glo) vs DMSO control (% of DMSO control); higher = more viable cells
Condition Set: oxygen condition: hypoxia 48 h (1% O2) + reoxygenation 24 h; 40 nM
Counter-ions that a name gives are not always drawn.

Molecule	Study Target	relative cell viability
O=S(=O)(O)Oc1ccc(C(c2ccc(OS(=O)(=O)O)cc2)c2ccccn2)cc1 [Sodium Picosulfate]	HL-1	107
C[C@@]12C[C@@]3(O)O[C@@H](O1)[C@]1(COC(=O)c4ccccc4)[C@H]3C[C@@]12O[C@@H]1O[C@H](CO)[C@@H](O)[C@H](O)[C@H]1O [Paeoniflorin]	HL-1	106
O=C1N=C(O)NC1(c1ccccc1)c1ccccc1 [Phenytoin sodium]	HL-1	96.1
C=CC[C@@H]1/C=C(\C)C[C@H](C)C[C@H](OC)[C@H]2O[C@@](O)(C(=O)C(=O)N3CCCC[C@H]3C(=O)O[C@H](/C(C)=C/[C@@H]3CC[C@@H](O)[C@H](OC)C3)[C@H](C)[C@@H](O)CC1=O)[C@H](C)C[C@@H]2OC	HL-1	102
COc1ccc2c(c1OC)C(=O)O[C@@H]2[C@H]1c2c(cc3c(c2OC)OCO3)CCN1C [Noscapine HCl]	HL-1	97.5
NCCC(O)(P(=O)(O)O)P(=O)(O)O [Pamidronate Disodium]	HL-1	98.6
c1cnc2cc3c(cc2n1)[C@@H]1CNC[C@H]3C1 [Varenicline tartrate]	HL-1	106
Cc1ccc(C(=O)Nc2ccc(CN3CCN(C)CC3)c(C(F)(F)F)c2)cc1C#Cc1cnc2cccnn12 [Ponatinib]	HL-1	105
CCOC(=O)[C@H](CCc1ccccc1)N[C@@H](C)C(=O)N1C(=O)N(C)C[C@H]1C(=O)O [Imidapril]	HL-1	111
CC(C)(C#N)c1cc(Cn2cncn2)cc(C(C)(C)C#N)c1 [Anastrozole]	HL-1	94.2
Cc1cccc(N(C)C(=S)Oc2ccc3ccccc3c2)c1 [Tolnaftate]	HL-1	91.4
CC(C)n1c(/C=C/C(O)CC(O)CC(=O)O)c(-c2ccc(F)cc2)c2ccccc21 (configuration not stated) [Fluvastatin sodium]	HL-1	88.9
C[C@]12CC[C@@H]3c4ccc(O)cc4CC[C@H]3[C@@H]1C[C@@H](O)[C@@H]2O [Estriol]	HL-1	101
CC(=O)Nc1ccccc1 [Acetanilide]	HL-1	96.5
O=c1cc[nH]c(=S)[nH]1 [2-Thiouracil]	HL-1	99.6
CCOC(=O)OC(C)OC1=C(C(=O)Nc2ccccn2)N(C)S(=O)(=O)c2ccccc21 (configuration not stated) [Ampiroxicam]	HL-1	110
C#Cc1cccc(Nc2ncnc3cc(OCCOC)c(OCCO)cc23)c1	HL-1	100
O=C(NC[C@H]1CN(c2ccc(N3CCOCC3=O)cc2)C(=O)O1)c1ccc(Cl)s1 [Rivaroxaban]	HL-1	91.5
c1ccc2c(CC3=NCCN3)cccc2c1 [Naphazoline hydrochloride]	HL-1	97.8
OCCOCCN1CCN(C2=Nc3ccccc3Sc3ccccc32)CC1 [Quetiapine fumarate]	HL-1	98.9
CCc1c2c(nc3ccc(OC(=O)N4CCC(N5CCCCC5)CC4)cc13)-c1cc3c(c(=O)n1C2)COC(=O)[C@]3(O)CC [Irinotecan]	HL-1	99.9
COc1cc(C(C)=O)ccc1OCCCN1CCC(c2noc3cc(F)ccc23)CC1 [Iloperidone]	HL-1	108
CCC[C@@H]1C[C@@H](C(=O)N[C@@H]([C@H]2O[C@H](SC)[C@H](O)[C@@H](O)[C@H]2O)[C@H](C)Cl)N(C)C1 [Clindamycin hydrochloride]	HL-1	98.5
CCCCNc1ccc(C(=O)OCCN(C)C)cc1 [Tetracaine hydrochloride]	HL-1	97.8
CCN(CCCc1ccccc1)CCCc1ccccc1 [Alverine Citrate]	HL-1	107
NC(=O)c1ncn([C@@H]2O[C@H](CO)[C@@H](O)[C@H]2O)n1 [Ribavirin]	HL-1	102
CCNC(=O)CCC/C=C\C[C@@H]1[C@@H](/C=C/[C@@H](O)CCc2ccccc2)[C@H](O)C[C@@H]1O [Bimatoprost]	HL-1	104
CCCCc1nc(Cl)c(CO)n1Cc1ccc(-c2ccccc2-c2nnn[nH]2)cc1 [Losartan potassium]	HL-1	111
CCOc1cc(N)c(Cl)cc1C(=O)NCC1CN(Cc2ccc(F)cc2)CCO1 (configuration not stated) [Mosapride citrate]	HL-1	105
CNNCc1ccc(C(=O)NC(C)C)cc1 [Procarbazine HCl]	HL-1	109
CC1(C)S[C@@H]2[C@H](NC(=O)[C@H](N)c3ccc(O)cc3)C(=O)N2[C@H]1C(=O)O [Amoxicillin]	HL-1	104
COC(=O)C1=C(C)NC(C)=C(C(=O)OCCN(C)Cc2ccccc2)C1c1cccc([N+](=O)[O-])c1 (configuration not stated) [Nicardipine HCl]	HL-1	107
